# System: NCI-H226 cells
# Assay name: Viability assay in NCI-H226 (Yap-dependent) cells, CyQUANT
# Assay type: cell-based
# Test context: Homo sapiens, NCI-H226 YAP dependent cell line, 96 hour incubation, group symbols
Property: IC50

Value lookup for IC50; key = Cn1cc2c3sc(C(=O)O)cc3n(C[C@H]3C[C@H](C(F)(F)F)C3)c2n1 [Compound 37] 1000 to 10000 nM

Which IC50 is reported for this molecule? CC[C@H](CO)NC(=O)c1cc2c3cn(C)nc3n(-c3ccc(C(F)(F)F)cc3)c2s1 [Compound 93] 1 to 100 nM

# get_value(readout='IC50', item= Cn1cc2c3sc(C(=O)O)cc3n(-c3ccc(OC(F)F)cc3)c2n1 [Compound 10] ) 100 to 1000 nM

Given Cn1cc2c3cc(C(=O)N[C@@H](CCO)c4cncs4)sc3n(-c3ccc(C(F)(F)F)cc3)c2n1 (single isomer, unassigned) [Compound 41] , state its recorded IC50. 100 to 1000 nM

GET /values?readout=IC50&item= C[C@H](CO)NC(=O)c1cc2c3cn(C)nc3n(-c3ccc(OC(F)F)cn3)c2s1 [Compound 123] 1 to 100 nM

Any idea what its IC50 is? The molecule is C[C@H](CO)NC(=O)c1cc2c3cn(C)nc3n(-c3ccc(C(F)(F)F)cc3)c2s1 [Compound 33] 1 to 100 nM

Name the reported IC50 value associated with the molecule CNC(=O)c1cc2c3cn(C)nc3n(-c3ccc(C(F)(F)F)cc3)c2s1 [Compound 32] 1 to 100 nM

Consider the molecule shown here: C[C@H](CO)NC(=O)c1cc2c3cn(C)nc3n(-c3ccc(OC(F)(F)F)cc3)c2s1 [Compound 50] What is its recorded IC50? 1 to 100 nM

Any idea what its IC50 is? The molecule is CNC(=O)c1cc2c3cn(C)nc3n(-c3ccc(OC(F)(F)F)cn3)c2s1 [Compound 124] 1 to 100 nM

Report IC50 for CCNC(=O)c1cc2c3cn(C)nc3n(-c3ccc(C(F)(F)F)cc3)c2s1 [Compound 46] please. 1 to 100 nM

Dear colleague, I am looking for the recorded IC50 of the following molecule: CNC(=O)c1cc2c3cn(C)nc3n(-c3ccc(C(F)F)cn3)c2s1 [Compound 119] 100 to 1000 nM

Name the recorded IC50 for Cn1cc2c3cc(C(=O)NCCO)sc3n(-c3ccc(C(F)(F)F)cc3)c2n1 [Compound 64] . 1 to 100 nM

Query: IC50; subject: Cn1cc2c3sc(C(=O)O)cc3n(C[C@H]3C[C@@H](C(F)(F)F)C3)c2n1 [Compound 36] 100 to 1000 nM

Please report the recorded IC50 for Cn1nc2c3sc(C(=O)O)cc3n(-c3ccc(OC(F)(F)F)cc3)c2n1 [Compound 27] . 100 to 1000 nM

Consider the molecule Cn1cc2c3cc(C(=O)NCCN4CCOCC4)sc3n(-c3ccc(C(F)(F)F)cc3)c2n1 [Compound 65] and give its measured IC50. 100 to 1000 nM

Value lookup for IC50; key = Cn1cc2c3cc(C(=O)O)sc3n(-c3ccc(C(F)F)cn3)c2n1 [Compound 117] 1000 to 10000 nM

Fill in the blank: the reported IC50 of Cc1nc2c3sc(C(=O)O)cc3n(-c3ccc(OC(F)(F)F)cc3)c2s1 [Compound 25] is ____. 100 to 1000 nM

What value of IC50 has been reported for the following molecule? COCCC(CO)NC(=O)c1cc2c3cn(C)nc3n(-c3ccc(C(F)(F)F)cc3)c2s1 (racemic) [Compound 63] 1 to 100 nM

Value lookup for IC50; key = Cn1cc2c3sc(C(=O)O)cc3n(-c3ccc(C(F)(F)F)cc3)c2n1 [Compound 2] 100 to 1000 nM

Value lookup for IC50; key = Cn1cc2c3cc(C(=O)NCc4ccccn4)sc3n(-c3ccc(C(F)(F)F)cc3)c2n1 [Compound 66] 1 to 100 nM

Record request: IC50 value, item Cn1cc2c3cc(C(=O)N[C@@H](CO)c4ccccn4)sc3n(-c3ccc(C(F)(F)F)cc3)c2n1 [Compound 35] 1 to 100 nM

# input molecule: Cn1nc2c3cc(C(=O)O)sc3n(-c3ccc(C(F)(F)F)cc3)c2n1 [Compound 95] ; wanted: its IC50 1 to 100 nM

Reported IC50 for Cc1nc2c3sc(C(=O)O)cc3n(-c3ccc(C(F)(F)F)cc3)c2s1 [Compound 22] : what is it? 100 to 1000 nM

Give the measured IC50 of Cn1cc2c3cc(C(=O)N[C@H](CCO)c4cncs4)sc3n(-c3ccc(C(F)(F)F)cc3)c2n1 (single isomer, unassigned) [Compound 42] . 1000 to 10000 nM

Recorded IC50 of Cn1nc2c3sc(C(=O)O)cc3n(-c3ccc(C(F)(F)F)cc3)c2n1 [Compound 3] , please. 100 to 1000 nM

Dear colleague, I am looking for the recorded IC50 of the following molecule: Cn1cc2c3cc(C(=O)O)sc3n(-c3ccc(C(F)F)cc3)c2n1 [Compound 99] 100 to 1000 nM

# query: IC50 of entry Cn1cc2c3cc(C(=O)N=S(C)(C)=O)sc3n(-c3ccc(C(F)(F)F)cc3)c2n1 [Compound 34] 100 to 1000 nM

If you can, please state the reported IC50 value of CNC(=O)c1cc2c3cn(C)nc3n(-c3ccc(C(F)F)cc3)c2s1 [Compound 100] . 1 to 100 nM

Looking for the measured IC50 of Cn1cc2c3cc(C(=O)N4CC[C@H](O)C4)sc3n(-c3ccc(C(F)(F)F)cc3)c2n1 [Compound 69] , can you help? 1 to 100 nM

Fill in the blank: the reported IC50 of Cn1cc2c3cc(C(=O)N=[S@@](C)(=O)CCCO)sc3n(-c3ccc(C(F)(F)F)cc3)c2n1 (single isomer, unassigned) [Compound 61] is ____. 100 to 1000 nM

Look up IC50: CNC(=O)c1cc2c(s1)c1c(ncn1C)n2-c1ccc(C(F)(F)F)cc1 [Compound 21] 100 to 1000 nM

Consider the molecule shown here: C[C@@H](O)CNC(=O)c1cc2c3cn(C)nc3n(-c3ccc(C(F)(F)F)cc3)c2s1 [Compound 44] What is its recorded IC50? 1 to 100 nM

###

# System: SW620 Yap KO cells
# Assay name: Viability assay in SW620 Yap KO (Yap independent) cells, CyQUANT
# Format: cell-based
# Test context: Homo sapiens, SW-620, SW620 YAP and TAZ knocked out (YAP independent), 96 hour incubation, n.d. (x) = not detectable below threshold x
Property: IC50

Quick check: IC50 of Cn1cnc2c1c1sc(C(=O)O)cc1n2-c1ccc(C(F)(F)F)cc1 [Compound 20] ? > 30 µM

// returns reported IC50 for input Cn1cc2c3cc(C(=O)O)sc3n(-c3ccc(OC(F)(F)F)cn3)c2n1 [Compound 118] > 30 µM

Item C[C@H](CO)NC(=O)c1cc2c3cn(C)nc3n(-c3ccc(C(F)(F)F)cc3)c2s1 [Compound 33] has what recorded IC50? > 3.2 µM

Return reported IC50; argument: C[C@H](O)CNC(=O)c1cc2c3cn(C)nc3n(-c3ccc(C(F)(F)F)cc3)c2s1 [Compound 43] > 3 µM

# query: IC50 of entry CNC(=O)c1cc2c3cn(C)nc3n(-c3ccc(C(F)F)cn3)c2s1 [Compound 119] > 30 µM

Record request: IC50 value, item CNC(=O)c1cc2c3cn(C)nc3n(-c3ccc(OC(F)F)cn3)c2s1 [Compound 121] > 30 µM

May I ask what IC50 has been recorded for Cn1cc2c3cc(C(=O)N4CC[C@H](O)C4)sc3n(-c3ccc(C(F)F)cc3)c2n1 [Compound 105] ? > 30 µM

# lookup: IC50 of Cn1cc2c3cc(C(=O)NC4(CO)CC4)sc3n(-c3ccc(C(F)(F)F)cc3)c2n1 [Compound 91] > 30 µM

Request the reported IC50 associated with Cn1nc2c3cc(C(=O)O)sc3n(-c3ccc(C(F)(F)F)cc3)c2n1 [Compound 95] > 30 µM

Using the record for Cn1cc2c3sc(C(=O)O)cc3n(C[C@H]3C[C@@H](C(F)(F)F)C3)c2n1 [Compound 36] , report its IC50. > 30 µM

# get_value(readout='IC50', item= COCCC(CO)NC(=O)c1cc2c3cn(C)nc3n(-c3ccc(C(F)(F)F)cc3)c2s1 (racemic) [Compound 63] ) > 3 µM

Quick check: IC50 of Cc1nc2c3sc(C(=O)O)cc3n(-c3ccc(OC(F)(F)F)cc3)c2s1 [Compound 25] ? > 30 µM

Given CNC(=O)c1cc2c3nn(C)nc3n(-c3ccc(C(F)(F)F)cc3)c2s1 [Compound 102] , state its recorded IC50. > 30 µM

Please give the measured IC50 for this molecule: Cn1cc2c3cc(C(=O)NCC(O)CO)sc3n(-c3ccc(C(F)(F)F)cc3)c2n1 (centres unmarked) [Compound 97] > 30 µM

Which value of IC50 has been reported for CC[C@@H](CO)NC(=O)c1cc2c3cn(C)nc3n(-c3ccc(C(F)(F)F)cc3)c2s1 [Compound 92] in the records? > 3 µM

IC50 lookup needed for C[C@H](CO)NC(=O)c1cc2c3cn(C)nc3n(-c3ccc(OC(F)(F)F)cn3)c2s1 [Compound 126] , thanks. > 30 µM

What value of measured IC50 is listed for CNC(=O)c1cc2c3cn(C)nc3n(-c3ccc(OC(F)(F)F)cc3)c2s1 [Compound 49] ? > 3 µM
